B1: LINE1-full (parent)
chain: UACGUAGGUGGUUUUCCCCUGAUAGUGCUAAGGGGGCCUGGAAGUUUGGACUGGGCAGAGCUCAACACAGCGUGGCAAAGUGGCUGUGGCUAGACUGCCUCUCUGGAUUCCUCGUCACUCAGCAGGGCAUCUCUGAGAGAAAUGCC

- Variants of: B1
- procedureDetails: self-cleavage, relative activity (ratio to wild type); higher = more cleavage; in vitro, sequencing; the parent is a self-cleaving ribozyme
self-cleavage values, listed per item
endpointName: self-cleavage

INSERT INTO measurements (chain, endpointname, numericresult) VALUES
  ('UACGUUGGUGGUUUUCCCCUGAUAGUGCUGAGGGGGCCUGGAAGUUUGGACUGGGCAGAGCUCAACACAGCGUGGCAAAGUGGCUGUGGCUAGACUGCCUCUCUGGAUUCCUCGUCACUCAGCAGGGCAUCUCUGAGAGAAAUGCC', 'self-cleavage', 1.01),
  ('UACGUAGGUGGUUUUCCCCUGAUAGUGCUAAGGGGGCCUGGAAGUUUGGACUGGGCAGAGCUCAACACAGCGUGGCAAAAUGGCUGUGGCUAGACUGCCUCUCUGGAUUCCUCGUCACUCAGCGGGGCAUCUCUGAGAGAAAUGCC', 'self-cleavage', 1),
  ('UACGUAGGUGGUUUUCCCCUGAUAGUGCUAAGGGGGCCUGGAAGUUUGGACUGGGCAGAGCUCAACACAGCGUGGCAAAGUGGCUGUGGCUAGACUGCCUCUCUGGAUUCCUCGUCCCUCAGCAGGGCUUCUCUGAGAGAAAUGCC', 'self-cleavage', 1);
